The origin of these recorded values is the supplement of paper PMC4466140.

Target: ScMyo5
Assay: SPOT peptide array binding signal intensity (averaged, normalized) (arbitrary units (background-subtracted, floor 0; scale differs between SH3 domains)); higher = stronger binding of the SH3 domain to the peptide
REPORTED_PROPERTY: SPOT peptide array binding signal intensity
// no unit, no text: just the number

Example entries begin here.
HGKRRAPLLLAKLDV: 5.5
VGFRLALKFPSRITG: 26.5
FYNRTAFQLPGDARV: 12.5

Record request: SPOT peptide array binding signal intensity value, item HRRRRVFSIPSLKSI 8

APERAVPILPPRNNV ? 2.75

Likewise for AIPPPVPNRPGGTTN ? 1.75
